Molecular target: NS4B binding to the 3′ terminus of the HCV negative strand RNA (Hepatitis C virus genotype 1a, UniProt P27958)
MEASURED_ATTRIBUTE: IC50

Field IC50 (entry `Clc1ccc(Cn2c(CN3CCCC3)nc3ccccc32)cc1` ) reads ~24 nM
